These measurements were taken from patent US6395275.

- system: gp120 glycoprotein of HIV-1 strain MN (HIV-1 strain MN, UniProt P05877 32-513, limits assumed)
- experiment: cell-based or functional assay
measured_property: IC50 (M^-1), syncytium neutralization assay, HIV-1 MN on CEM-SS cells (M⁻¹)
Give the value in M⁻¹ but do not write M⁻¹ after it.

The reported value for Fab 3b3 (Fab, V domains shown) VH: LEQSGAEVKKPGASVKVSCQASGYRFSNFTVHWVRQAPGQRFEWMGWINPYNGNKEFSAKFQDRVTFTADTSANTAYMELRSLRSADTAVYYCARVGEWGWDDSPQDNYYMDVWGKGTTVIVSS VL: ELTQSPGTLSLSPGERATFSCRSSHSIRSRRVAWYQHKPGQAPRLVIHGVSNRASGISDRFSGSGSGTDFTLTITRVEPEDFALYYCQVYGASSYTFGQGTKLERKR in terms of IC50 (M^-1), syncytium neutralization assay, HIV-1 MN on CEM-SS cells is 9.02e+09
